Measured values drawn from the supplement of paper PMC10567573 for this set.

Give measured protein stability index for each item. Keep answers brief.
B1: GLT8D2 (parent)
chain: QEAKLLHWNGRHKPWDFPSVHNDL

# Variants of: B1
# ASSAY NAME: protein stability index of a GFP-peptide fusion (GPS, HEK-293T) (PSI 1-6); higher = more stable;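 also: lentivirally expressed fusions sorted by FACS into six bins by GFP to DsRed ratio, PSI derived from sequencing read proportions per bin multiplied by bin number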
# RUN PARAMETERS: c terminus: a fixed tail appended
Returns: the value as a bare number; no unit string appended.

Measured protein stability index of QEAKLLHWNGRHKPWDFPSVHVDL [N22V] : 1.92

Measured protein stability index of QEAKLLHKNGRHKPWDFPSVHNDL [W8K] : 2.69

Measured protein stability index of QEAKLLHWNGRHKPWDFFSVHNDL [P18F] : 2.18

Measured protein stability index of QEAKLLHWNGRHKPWDFPSVHNHL [D23H] : 2.38

Measured protein stability index of QEAKLLHWNGRRKPWDFPSVHNDL [H12R] : 2.77

Measured protein stability index of QEAKLLHWNGRHWPWDFPSVHNDL [K13W] : 2.29

Measured protein stability index of QEAKHLHWNGRHKPWDFPSVHNDL [L5H] : 2.67

Measured protein stability index of QEAKLLHWNGRAKPWDFPSVHNDL [H12A] : 2.36

Measured protein stability index of QAAKLLHWNGRHKPWDFPSVHNDL [E2A] : 1.89

Measured protein stability index of PEAKLLHWNGRHKPWDFPSVHNDL [Q1P] : 2.85

Measured protein stability index of QEAKLLHWNGRHKPWDFPSVHTDL [N22T] : 2.5

Measured protein stability index of QEAKWLHWNGRHKPWDFPSVHNDL [L5W] : 2.59

Measured protein stability index of QEAKLLHENGRHKPWDFPSVHNDL [W8E] : 3.47

Measured protein stability index of QEAKLLHWNGRHKPWDFPSCHNDL [V20C] : 2.54

Measured protein stability index of QEAKLLHWNGRHKPWNFPSVHNDL [D16N] : 2.42

Measured protein stability index of QEAKLLHWNGRHKPWDFPIVHNDL [S19I] : 2.5

Measured protein stability index of QKAKLLHWNGRHKPWDFPSVHNDL [E2K] : 2.18

Measured protein stability index of QEAKLLHWNGRHKPWDFPEVHNDL [S19E] : 3.92

Measured protein stability index of QEAKLLHWNGRHVPWDFPSVHNDL [K13V] : 2.1

Measured protein stability index of QEAKLLHWNGKHKPWDFPSVHNDL [R11K] : 2.61

Measured protein stability index of QEAKLLHWNGRHKPWDFPSVSNDL [H21S] : 3.21

Measured protein stability index of QEAPLLHWNGRHKPWDFPSVHNDL [K4P] : 2.83

Measured protein stability index of QEAKLLHWNGRHKPWDFYSVHNDL [P18Y] : 2.24

Measured protein stability index of QEAKLLQWNGRHKPWDFPSVHNDL [H7Q] : 2.9

Measured protein stability index of QEAKMLHWNGRHKPWDFPSVHNDL [L5M] : 2.94

Measured protein stability index of QEAKLLHWNGRHKPWDFPSVHNDG [L24G] : 3.07

Measured protein stability index of QEAKLLHWNGRHKPWDFPSVHPDL [N22P] : 2.57

Measured protein stability index of QEAKLLHWNGRHKWWDFPSVHNDL [P14W] : 2.19

Measured protein stability index of QEAALLHWNGRHKPWDFPSVHNDL [K4A] : 2.81

Measured protein stability index of QEAKLLHWNGRHKPWDFPSVHNDN [L24N] : 3.25

Measured protein stability index of QEKKLLHWNGRHKPWDFPSVHNDL [A3K] : 2.59

Measured protein stability index of QEAKCLHWNGRHKPWDFPSVHNDL [L5C] : 2.77

Measured protein stability index of QEAKLLHWNFRHKPWDFPSVHNDL [G10F] : 2.37

Measured protein stability index of QEAKLLHWVGRHKPWDFPSVHNDL [N9V] : 2.25

Measured protein stability index of QEAKLLHWNGRHKPWDFNSVHNDL [P18N] : 2.72

Measured protein stability index of QEAQLLHWNGRHKPWDFPSVHNDL [K4Q] : 2.5

Measured protein stability index of HEAKLLHWNGRHKPWDFPSVHNDL [Q1H] : 2.35

Measured protein stability index of QEAKLLHWNGRHKPWCFPSVHNDL [D16C] : 1.55

Measured protein stability index of QEADLLHWNGRHKPWDFPSVHNDL [K4D] : 2.67

Measured protein stability index of QEAKLLHWNGRHCPWDFPSVHNDL [K13C] : 2.29

Measured protein stability index of QEAKLLHWNGHHKPWDFPSVHNDL [R11H] : 2.64

Measured protein stability index of QEAKLSHWNGRHKPWDFPSVHNDL [L6S] : 2.91

Measured protein stability index of QSAKLLHWNGRHKPWDFPSVHNDL [E2S] : 2.04

Measured protein stability index of QEAKLLHWNGRHKVWDFPSVHNDL [P14V] : 2.09

Measured protein stability index of QEAKLLHWNGRHKPWDFPSQHNDL [V20Q] : 3.17

Measured protein stability index of QEAKLLHWNGRHKPWDFLSVHNDL [P18L] : 2.25
